- Assay system: human CD3 (human, UniProt P07766 23-207; P04234 22-171; P09693 23-182)
- Sequence (P07766 23-207, chain 1 of 3): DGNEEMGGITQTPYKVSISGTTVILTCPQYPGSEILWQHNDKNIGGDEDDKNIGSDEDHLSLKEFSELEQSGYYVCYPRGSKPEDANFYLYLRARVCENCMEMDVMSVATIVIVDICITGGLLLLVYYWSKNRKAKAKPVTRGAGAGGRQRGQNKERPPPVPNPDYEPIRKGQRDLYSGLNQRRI
- Sequence (P04234 22-171, chain 2 of 3): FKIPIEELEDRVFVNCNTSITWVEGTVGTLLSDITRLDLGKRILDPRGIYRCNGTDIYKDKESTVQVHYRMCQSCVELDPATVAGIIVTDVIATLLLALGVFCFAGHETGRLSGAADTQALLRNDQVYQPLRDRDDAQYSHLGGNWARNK
- Sequence (P09693 23-182, chain 3 of 3): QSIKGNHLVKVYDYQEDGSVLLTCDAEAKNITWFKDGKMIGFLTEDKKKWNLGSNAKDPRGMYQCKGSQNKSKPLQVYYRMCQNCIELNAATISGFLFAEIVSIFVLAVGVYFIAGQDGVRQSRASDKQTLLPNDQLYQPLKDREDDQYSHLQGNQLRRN
- Assay notes: cell-based or functional assay
Catalogue of EC50_Fold change (Jurkat-NFAT-luciferase activation, normalized to ch147E11E2) readings, one per entry.
Property name: EC50_Fold change (Jurkat-NFAT-luciferase activation, normalized to ch147E11E2) (fold)

{"Binder": "hu147E2-L1H4 (antibody, V domains shown, humanized 147E11E2; also called hu14E2-L1H4) VH: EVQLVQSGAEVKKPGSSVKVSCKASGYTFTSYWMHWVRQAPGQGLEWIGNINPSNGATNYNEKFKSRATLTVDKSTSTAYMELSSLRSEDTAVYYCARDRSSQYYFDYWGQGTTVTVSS VL: DIVMTQSPDSLAVSLGERATINCKSSQSLLNSRSRKNYLAWYQQKPGQPPKLLIYWASTRESGVPDRFSGSGSGTDFTLTISSLQAEDVAVYYCTQSYTLRTFGGGTKVEIK", "Value": 1.21}
{"Binder": "hu147E2-L2H2 (antibody, V domains shown, humanized 147E11E2; also called hu14E2-L2H2) VH: EVQLVQSGAEVKKPGSSVKVSCKASGYTFTSYWMHWVRQAPGQGLEWMGNINPSNGATNYNEKFKSRVTITADKSTSTAYMELSSLRSEDTAVYYCARDRSSQYYFDYWGQGTTVTVSS VL: DIVMTQSPDSLAVSLGERATINCKSSQSLLNSRSRKNYLAWYQQKPGQSPKLLIYWASTRESGVPDRFSGSGSGTDFTLTISSLQAEDVAVYYCTQSYTLRTFGGGTKVEIK", "Value": 1.4}
{"Binder": "hu147E2-L3H2 (antibody, V domains shown, humanized 147E11E2; also called hu14E2-L3H2) VH: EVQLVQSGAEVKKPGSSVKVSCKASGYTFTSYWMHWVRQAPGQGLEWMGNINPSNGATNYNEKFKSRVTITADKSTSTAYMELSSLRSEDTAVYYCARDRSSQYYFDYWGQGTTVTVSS VL: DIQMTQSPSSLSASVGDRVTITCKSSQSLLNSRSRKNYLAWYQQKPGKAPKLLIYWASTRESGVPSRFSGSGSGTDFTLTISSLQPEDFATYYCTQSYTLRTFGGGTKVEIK", "Value": 1.66}

Source of measurements: patent US20250223358A1
